Source: patent US20250034269A1

Target: T1, human LTBR on cells (human, UniProt P36941 31-435)
T1 construct: also called recombinant human LTBR CHO cells; CHO-K1 cells overexpressing human LTBR
Assay: FACS CHO-huLTBR, 0.0001 µg/ml
measured-endpoint: MFI (MFI)
Answers are plain numbers, in MFI.

## Task Suppose we examine the binder P1AF0080 (antibody, human IgG1, kappa, L234A L235A, V domains shown, human IgG1 PG LALA; from transgenic rabbit immunization; also called LTBR (0080)) VH: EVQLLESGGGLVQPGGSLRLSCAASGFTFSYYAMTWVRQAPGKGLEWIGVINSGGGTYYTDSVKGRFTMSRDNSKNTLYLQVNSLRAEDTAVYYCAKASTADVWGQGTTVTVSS VL: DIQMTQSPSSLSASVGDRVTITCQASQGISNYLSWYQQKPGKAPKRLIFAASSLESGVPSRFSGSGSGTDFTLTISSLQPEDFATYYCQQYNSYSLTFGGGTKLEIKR ; what MFI value has been reported?
## Result 1010
